Assay: Pharmacokinetic analysis of SYN120 tablets, single oral dose (Example 8)
Assay type: in vivo, human
Details: human, plasma; single oral dose 300 mg, Cohort F; arithmetic mean ±SD; read-out: t1/2 (converted)
Experimental: Pharmacokinetic (PK) analysis was performed on 42 subjects (36 males; 6 females) who received SYN120 oral tablets. In this study, subjects received a single oral dose of SYN120 at one of the following doses: 2 mg; 10 mg; 30 mg; 100 mg; 300 mg; and 600 mg. The SYN120 oral tablets used in this study were formulated for immediate release at tablet strengths of 2 mg, 10 mg, and 50 mg. […]
test readout: half-life
Just the number plus its unit, please.

Read the entry NC(=O)NC[C@@H]1CCCc2cc(S(=O)(=O)c3cccc(F)c3)ccc21 [SYN120] and write its reported half-life.
9.58 h

Taken from patent US10973784B2.
